biological target: Neutrophil elastase (Homo sapiens); assay: Inhibition constant (steady state) against Human Leukocyte Elastase (HLE)
Sequence (P08246 whole entry): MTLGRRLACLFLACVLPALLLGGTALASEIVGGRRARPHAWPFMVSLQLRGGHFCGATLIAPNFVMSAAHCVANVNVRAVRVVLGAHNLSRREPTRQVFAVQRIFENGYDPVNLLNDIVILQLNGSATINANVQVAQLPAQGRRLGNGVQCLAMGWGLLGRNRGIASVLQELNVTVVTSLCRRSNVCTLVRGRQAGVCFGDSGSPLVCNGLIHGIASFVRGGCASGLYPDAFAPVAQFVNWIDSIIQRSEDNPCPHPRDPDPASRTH
readoutLabel: Ki ss (µM)
Your answer should be a plain number; it is taken to be in µM.

# example entries with known answers
CC(=O)OCC1=C(C(=O)C(C)(C)C)N2C(=O)[C@H](Cl)C2S(=O)(=O)C1 (stereo partly drawn) :: 0.004
CC1=C(C(=O)c2ccccc2)N2C(=O)[C@H](Cl)C2S(=O)(=O)[C@@H]1Sc1nnnn1C (stereo partly drawn) :: 0.27
CC(=O)OCC1=C(C(=O)C(C)(C)C)N2C(=O)[C@H](Cl)C2S(=O)(=O)[C@@H]1Sc1nnnn1C (stereo partly drawn) :: 0.14
CC1=C(C(=O)C(C)(C)C)N2C(=O)[C@H](Cl)C2S(=O)(=O)C1 (stereo partly drawn) :: 0.38
CO[C@H]1C(=O)N2C(C(=O)C(C)(C)C)=C(CSc3ccccn3)CS(=O)(=O)C12 (stereo partly drawn) :: 0.012

### Prompt Provide Neutrophil elastase (Homo sapiens) Ki ss reading for CO[C@H]1C(=O)N2C(C(=O)OC(C)(C)C)=C(C)[C@@H](Sc3ccccn3)S(=O)(=O)C12 (stereo partly drawn) .
### Response 0.18

### Prompt Provide Neutrophil elastase (Homo sapiens) Ki ss reading for CO[C@H]1C(=O)N2C(C(=O)C(C)(C)C)=C(C)[C@@H](Sc3nc(=O)c(=O)[nH]n3C)S(=O)(=O)C12 (stereo partly drawn) .
### Response 0.026

Origin of values: ChEMBL document CHEMBL1127413
